Target: T1, His-tagged, full-length PCSK9 (human, UniProt A8T644 31-152; Q8NBP7 153-692)
T1 construct: Target protein of the PCSK9/EGF(A) TR-FRET assay (10 nM); also called His-PCSK9; proprotein convertase subtilisin/kexin type 9
T1 sequence (A8T644 31-152 limits assumed, chain 1 of 2): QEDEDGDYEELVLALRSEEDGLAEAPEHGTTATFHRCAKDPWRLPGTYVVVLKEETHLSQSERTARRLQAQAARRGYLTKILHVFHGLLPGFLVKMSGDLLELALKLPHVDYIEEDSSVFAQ
T1 sequence (A8T644 other isoform, or with tags, fused parts or gaps limits assumed, chain 2 of 2): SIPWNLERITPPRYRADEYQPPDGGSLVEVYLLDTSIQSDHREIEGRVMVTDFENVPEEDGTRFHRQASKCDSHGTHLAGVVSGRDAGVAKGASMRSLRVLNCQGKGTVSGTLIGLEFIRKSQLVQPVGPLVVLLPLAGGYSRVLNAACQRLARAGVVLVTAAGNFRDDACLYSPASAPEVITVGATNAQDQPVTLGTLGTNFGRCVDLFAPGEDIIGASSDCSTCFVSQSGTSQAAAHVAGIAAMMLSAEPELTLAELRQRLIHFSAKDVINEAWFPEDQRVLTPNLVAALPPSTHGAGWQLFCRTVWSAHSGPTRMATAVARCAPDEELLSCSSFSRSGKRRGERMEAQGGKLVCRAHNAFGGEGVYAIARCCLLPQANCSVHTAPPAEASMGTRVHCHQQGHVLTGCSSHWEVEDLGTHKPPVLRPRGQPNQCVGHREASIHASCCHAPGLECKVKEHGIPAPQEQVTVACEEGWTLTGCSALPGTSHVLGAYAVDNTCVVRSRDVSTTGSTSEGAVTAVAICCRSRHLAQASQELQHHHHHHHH
Experiment: TR-FRET competition; competitor EGF(A)-Fc on His-PCSK9
pIC50: −log10 of the molar value. Bridge positions count the residues as written; N and C are the ends. Square brackets hold non-standard residues; d marks the D form. Ahp = NCCCCCCC(=O)O; Ava = NCCCCC(=O)O
QUANTITY_MEASURED: pIC50

Please review the entries below; each comes with its answer.
| BINDER | pIC50 |
| --- | --- |
| Ac-WCLWNLKRIGSQCWF-OH (disulfide 2-13; SMILES CC[C@H](C)[C@@H]1NC(=O)[C@H](CCCNC(=N)N)NC(=O)[C@H](CCCCN)NC(=O)[C@H](CC(C)C)NC(=O)[C@H](CC(N)=O)NC(=O)[C@H](Cc2c[nH]c3ccccc23)NC(=O)[C@H](CC(C)C)NC(=O)[C@@H](NC(=O)[C@H](Cc2c[nH]c3ccccc23)NC(C)=O)CSSC[C@@H](C(=O)N[C@@H](Cc2c[nH]c3ccccc23)C(=O)N[C@@H](Cc2ccccc2)C(=O)O)NC(=O)[C@H](CCC(N)=O)NC(=O)[C@H](CO)NC(=O)CNC1=O) [Compound 90] | 4.53 |
| Ac-GCLWNLKRIGSQCWF-NH2 (disulfide 2-13; SMILES CC[C@H](C)[C@@H]1NC(=O)[C@H](CCCNC(=N)N)NC(=O)[C@H](CCCCN)NC(=O)[C@H](CC(C)C)NC(=O)[C@H](CC(N)=O)NC(=O)[C@H](Cc2c[nH]c3ccccc23)NC(=O)[C@H](CC(C)C)NC(=O)[C@@H](NC(=O)CNC(C)=O)CSSC[C@@H](C(=O)N[C@@H](Cc2c[nH]c3ccccc23)C(=O)N[C@@H](Cc2ccccc2)C(N)=O)NC(=O)[C@H](CCC(N)=O)NC(=O)[C@H](CO)NC(=O)CNC1=O) [Compound 87] | < 4.30 |
| Ac-CRAPWNLQRIGLPC-NH2 (disulfide 1-14; SMILES CC[C@H](C)[C@@H]1NC(=O)[C@H](CCCNC(=N)N)NC(=O)[C@H](CCC(N)=O)NC(=O)[C@H](CC(C)C)NC(=O)[C@H](CC(N)=O)NC(=O)[C@H](Cc2c[nH]c3ccccc23)NC(=O)[C@@H]2CCCN2C(=O)[C@H](C)NC(=O)[C@H](CCCNC(=N)N)NC(=O)[C@@H](NC(C)=O)CSSC[C@@H](C(N)=O)NC(=O)[C@@H]2CCCN2C(=O)[C@H](CC(C)C)NC(=O)CNC1=O) [Compound 78] | < 4.30 |

pIC50 in this record for Ac-MCLWNLKRIGSQCEY-NH2 (disulfide 2-13; SMILES CC[C@H](C)[C@@H]1NC(=O)[C@H](CCCNC(=N)N)NC(=O)[C@H](CCCCN)NC(=O)[C@H](CC(C)C)NC(=O)[C@H](CC(N)=O)NC(=O)[C@H](Cc2c[nH]c3ccccc23)NC(=O)[C@H](CC(C)C)NC(=O)[C@@H](NC(=O)[C@H](CCSC)NC(C)=O)CSSC[C@@H](C(=O)N[C@@H](CCC(=O)O)C(=O)N[C@@H](Cc2ccc(O)cc2)C(N)=O)NC(=O)[C@H](CCC(N)=O)NC(=O)[C@H](CO)NC(=O)CNC1=O) [Compound 63] : 4.84

pIC50 in this record for Ac-CRLPWNLQRI[Ahp]C-NH2 (disulfide 1-12; SMILES CC[C@H](C)[C@@H]1NC(=O)[C@H](CCCNC(=N)N)NC(=O)[C@H](CCC(N)=O)NC(=O)[C@H](CC(C)C)NC(=O)[C@H](CC(N)=O)NC(=O)[C@H](Cc2c[nH]c3ccccc23)NC(=O)[C@@H]2CCCN2C(=O)[C@H](CC(C)C)NC(=O)[C@H](CCCNC(=N)N)NC(=O)[C@@H](NC(C)=O)CSSC[C@@H](C(N)=O)NC(=O)CCCCCCNC1=O) [Compound 121] : < 4.30

pIC50 in this record for Ac-CWNLKRIGSQGCW-NH2 (disulfide 1-12 (inferred)) [Compound 39] : < 4.30

pIC50 in this record for Ac-GSGCWNLKRIGSQGCW-NH2 (disulfide 4-15 (inferred)) [Compound 40] : 5.22

pIC50 in this record for Ac-CRLPWNLQRI[Ava]C-NH2 (disulfide 1-12; SMILES CC[C@H](C)[C@@H]1NC(=O)[C@H](CCCNC(=N)N)NC(=O)[C@H](CCC(N)=O)NC(=O)[C@H](CC(C)C)NC(=O)[C@H](CC(N)=O)NC(=O)[C@H](Cc2c[nH]c3ccccc23)NC(=O)[C@@H]2CCCN2C(=O)[C@H](CC(C)C)NC(=O)[C@H](CCCNC(=N)N)NC(=O)[C@@H](NC(C)=O)CSSC[C@@H](C(N)=O)NC(=O)CCCCNC1=O) [Compound 115] : < 4.30

pIC50 in this record for Ac-CRLPWNLQRIALPC-NH2 (disulfide 1-14; SMILES CC[C@H](C)[C@@H]1NC(=O)[C@H](CCCNC(=N)N)NC(=O)[C@H](CCC(N)=O)NC(=O)[C@H](CC(C)C)NC(=O)[C@H](CC(N)=O)NC(=O)[C@H](Cc2c[nH]c3ccccc23)NC(=O)[C@@H]2CCCN2C(=O)[C@H](CC(C)C)NC(=O)[C@H](CCCNC(=N)N)NC(=O)[C@@H](NC(C)=O)CSSC[C@@H](C(N)=O)NC(=O)[C@@H]2CCCN2C(=O)[C@H](CC(C)C)NC(=O)[C@H](C)NC1=O) [Compound 70] : < 4.30

These data points were gathered from patent US20190177366A1.
